Provide the recorded pIC50 for the entries that follow.
# target_or_system: Inhibitor of nuclear factor kappa-B kinase subunit beta (Homo sapiens, UniProt O14920)
# Sequence (O14920 whole entry): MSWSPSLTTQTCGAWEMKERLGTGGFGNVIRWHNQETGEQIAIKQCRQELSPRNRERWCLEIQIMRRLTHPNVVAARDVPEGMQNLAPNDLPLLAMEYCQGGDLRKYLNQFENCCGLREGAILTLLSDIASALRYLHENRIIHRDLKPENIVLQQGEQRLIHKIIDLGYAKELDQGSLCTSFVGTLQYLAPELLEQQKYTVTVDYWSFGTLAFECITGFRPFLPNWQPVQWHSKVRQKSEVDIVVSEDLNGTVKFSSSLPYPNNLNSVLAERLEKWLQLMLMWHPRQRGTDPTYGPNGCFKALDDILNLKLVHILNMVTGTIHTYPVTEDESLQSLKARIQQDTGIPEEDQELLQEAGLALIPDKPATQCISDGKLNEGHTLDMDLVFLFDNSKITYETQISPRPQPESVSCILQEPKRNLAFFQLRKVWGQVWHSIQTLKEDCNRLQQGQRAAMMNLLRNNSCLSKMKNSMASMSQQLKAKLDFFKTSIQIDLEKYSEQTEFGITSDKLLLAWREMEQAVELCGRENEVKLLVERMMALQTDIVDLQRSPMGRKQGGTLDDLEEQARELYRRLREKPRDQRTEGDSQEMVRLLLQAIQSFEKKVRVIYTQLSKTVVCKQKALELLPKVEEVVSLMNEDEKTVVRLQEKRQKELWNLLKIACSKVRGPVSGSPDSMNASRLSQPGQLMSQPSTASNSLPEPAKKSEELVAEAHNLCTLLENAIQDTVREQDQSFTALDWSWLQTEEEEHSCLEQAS
# protocol_text: Inhibition of recombinant human full-length N-terminal GST-fused/His6-tagged IKKbeta (M1 to S756 residues) expressed in Sf9 insect cells using ERLLDDRHDSGLDSMKDEE peptide as substrate measured after 60 mins by ADP-Glo kinase assay
pIC50: −log10 of the molar value.

Supply pIC50 value. Item: Cc1c(-c2ccc(Cl)c(Cl)c2)c(N)nn1C
< 4.00

Supply pIC50 value. Item: Cc1nn(C(=O)c2ccccc2)c(N)c1-c1ccc(Cl)c(Cl)c1
< 4.00

Supply pIC50 value. Item: Cc1n[nH]c(N)c1-c1ccccc1
< 4.00

Supply pIC50 value. Item: Cc1[nH]nc(N)c1-c1cccc(Cl)c1
< 4.00

Supply pIC50 value. Item: Cc1[nH]nc(N)c1-c1cccc(C(F)(F)F)c1
4.65

Supply pIC50 value. Item: Cc1cccc(-c2c(N)n[nH]c2C)c1
< 4.00

Supply pIC50 value. Item: Cc1[nH]nc(NC(=O)C(F)(F)F)c1-c1ccc(Cl)c(Cl)c1
< 4.00

Supply pIC50 value. Item: Cc1[nH]nc(N)c1-c1ccc2c(c1)OCO2
< 4.00

Supply pIC50 value. Item: CC(=O)n1nc(C)c(-c2cccc(C(F)(F)F)c2)c1N
< 4.00

Supply pIC50 value. Item: CC(=O)n1nc(C)c(Br)c1N
4.87

Supply pIC50 value. Item: CC(=O)n1nc(N)c(Br)c1C
4.32

Supply pIC50 value. Item: Cc1ccc(-c2c(N)n[nH]c2C)cc1
< 4.00

Supply pIC50 value. Item: Cc1c(-c2ccc(Cl)c(Cl)c2)c(N)nn1C(=O)c1cccnc1
< 4.00

Supply pIC50 value. Item: O=C(Nc1cc(Cl)c2c(c1)[nH]c1cnccc12)c1cccnc1
7.05
